3',5'-cyclic-AMP phosphodiesterase 4B (Homo sapiens): reported IC50 for various molecules.
Sequence (Q07343 whole entry): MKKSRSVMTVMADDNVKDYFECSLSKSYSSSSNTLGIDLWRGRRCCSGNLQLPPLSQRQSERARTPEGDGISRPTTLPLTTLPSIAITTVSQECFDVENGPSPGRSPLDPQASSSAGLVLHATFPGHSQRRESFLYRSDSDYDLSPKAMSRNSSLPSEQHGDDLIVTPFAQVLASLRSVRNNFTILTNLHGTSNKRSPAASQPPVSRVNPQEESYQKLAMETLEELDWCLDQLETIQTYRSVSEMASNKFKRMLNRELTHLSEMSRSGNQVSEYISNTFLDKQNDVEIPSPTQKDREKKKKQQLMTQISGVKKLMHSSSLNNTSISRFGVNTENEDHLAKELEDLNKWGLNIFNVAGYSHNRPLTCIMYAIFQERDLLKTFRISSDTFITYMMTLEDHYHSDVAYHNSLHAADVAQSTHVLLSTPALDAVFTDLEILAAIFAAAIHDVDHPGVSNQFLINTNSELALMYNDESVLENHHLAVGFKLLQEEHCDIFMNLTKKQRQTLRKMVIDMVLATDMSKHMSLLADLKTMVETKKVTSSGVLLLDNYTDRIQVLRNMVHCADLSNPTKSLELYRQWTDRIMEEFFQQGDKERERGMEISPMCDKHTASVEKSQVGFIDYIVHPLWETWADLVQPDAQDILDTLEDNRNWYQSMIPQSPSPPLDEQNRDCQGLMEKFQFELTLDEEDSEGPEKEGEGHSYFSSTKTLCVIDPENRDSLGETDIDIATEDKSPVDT
Only the number, expressed in nM, is required.

Worked cases, IC50 given:
O=C(Nc1cccnc1)c1ccc(OC(F)F)c(OCC2CC2)c1
34
O=C(Nc1ccccc1Cl)c1ccc(OC(F)F)c(OC2CCCC2)c1
144

Field: next molecule
Q. Look up IC50 for this molecule: "O=C(Nc1cccnc1)c1ccc(OC(F)F)c(OC2CCCC2)c1"
A. 39

* * *

# TARGET: UniProtKB O60658
# Sequence (O60658 whole entry): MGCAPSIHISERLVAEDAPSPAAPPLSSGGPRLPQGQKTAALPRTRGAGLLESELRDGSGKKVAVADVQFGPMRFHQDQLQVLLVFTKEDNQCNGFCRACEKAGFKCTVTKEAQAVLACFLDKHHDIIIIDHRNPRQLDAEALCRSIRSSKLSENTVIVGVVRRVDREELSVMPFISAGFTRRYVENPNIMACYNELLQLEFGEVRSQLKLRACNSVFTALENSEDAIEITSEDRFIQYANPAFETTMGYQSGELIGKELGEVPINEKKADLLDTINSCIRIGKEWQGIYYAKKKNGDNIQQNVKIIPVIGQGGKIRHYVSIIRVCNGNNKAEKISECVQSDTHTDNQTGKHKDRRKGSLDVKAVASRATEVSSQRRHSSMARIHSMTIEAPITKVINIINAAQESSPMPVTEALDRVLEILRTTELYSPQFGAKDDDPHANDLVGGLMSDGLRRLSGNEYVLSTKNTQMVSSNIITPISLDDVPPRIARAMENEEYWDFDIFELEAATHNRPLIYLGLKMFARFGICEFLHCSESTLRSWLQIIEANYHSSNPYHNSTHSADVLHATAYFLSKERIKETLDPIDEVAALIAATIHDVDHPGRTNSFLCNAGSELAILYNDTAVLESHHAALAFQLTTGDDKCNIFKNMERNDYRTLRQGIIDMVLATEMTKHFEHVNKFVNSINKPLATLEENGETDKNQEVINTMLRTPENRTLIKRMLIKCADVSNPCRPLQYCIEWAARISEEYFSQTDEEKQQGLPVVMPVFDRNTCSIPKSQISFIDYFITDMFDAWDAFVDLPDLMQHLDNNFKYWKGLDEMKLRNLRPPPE
# ASSAY_NOTES: Inhibition of human PDE8A1 at 10^4 nM using FAM-3',5'-cAMP as substrate after 1 hr by fluorescence polarization assay relative to control
MEASURED_METRIC: inhibition (%)
Only the number, expressed in %, is required.

Q. Look up inhibition for this molecule: "O=C(Nc1cccnc1)c1ccc(OC(F)F)c(OC2CCCC2)c1"
A. 9

Q. Look up inhibition for this molecule: "O=C(Nc1cccnc1)c1ccc(OC(F)F)c(OCC2CC2)c1"
A. 22

Q. Look up inhibition for this molecule: "O=C(Nc1ccccc1Cl)c1ccc(OC(F)F)c(OC2CCCC2)c1"
A. 10

Q. Look up inhibition for this molecule: "O=C(Nc1ccccc1Cl)c1ccc(OC(F)F)c(OCC2CC2)c1"
A. 3

This collection of values is drawn from ChEMBL document CHEMBL3875154.
